Known log10 of IC50 of a selection of compounds
Biological target: human TLR8 (Homo sapiens (Human))
Sequence (Q9NR97 27-1041): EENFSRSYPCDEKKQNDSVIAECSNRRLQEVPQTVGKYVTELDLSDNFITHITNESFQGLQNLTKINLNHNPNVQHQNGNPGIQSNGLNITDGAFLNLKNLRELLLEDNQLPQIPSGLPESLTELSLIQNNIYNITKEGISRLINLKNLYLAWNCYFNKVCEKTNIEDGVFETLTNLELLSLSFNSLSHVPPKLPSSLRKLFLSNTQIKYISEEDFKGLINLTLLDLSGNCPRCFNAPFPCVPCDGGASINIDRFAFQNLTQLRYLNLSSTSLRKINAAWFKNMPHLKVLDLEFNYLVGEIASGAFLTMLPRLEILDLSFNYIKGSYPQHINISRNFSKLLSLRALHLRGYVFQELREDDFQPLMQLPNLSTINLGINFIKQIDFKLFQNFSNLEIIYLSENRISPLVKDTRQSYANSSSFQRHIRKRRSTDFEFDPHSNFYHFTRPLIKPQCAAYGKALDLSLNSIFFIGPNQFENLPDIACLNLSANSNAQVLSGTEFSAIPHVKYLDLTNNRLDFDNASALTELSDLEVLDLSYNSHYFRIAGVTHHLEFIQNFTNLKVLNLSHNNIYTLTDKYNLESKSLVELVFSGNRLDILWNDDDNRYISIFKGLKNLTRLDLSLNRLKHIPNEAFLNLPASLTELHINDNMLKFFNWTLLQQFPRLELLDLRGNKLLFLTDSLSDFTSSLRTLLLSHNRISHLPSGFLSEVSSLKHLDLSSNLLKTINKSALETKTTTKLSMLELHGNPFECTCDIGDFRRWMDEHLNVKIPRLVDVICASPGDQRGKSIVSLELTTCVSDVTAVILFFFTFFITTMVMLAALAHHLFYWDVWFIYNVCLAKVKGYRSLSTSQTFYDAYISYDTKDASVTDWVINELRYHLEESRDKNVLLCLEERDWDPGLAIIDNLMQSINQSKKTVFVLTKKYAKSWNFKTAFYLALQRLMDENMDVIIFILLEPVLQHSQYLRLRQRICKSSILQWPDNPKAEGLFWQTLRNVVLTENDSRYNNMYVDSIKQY
Experiment: TLR8 inhibition reporter assay (HEK-Blue cells, SEAP reporter, R848 stimulation);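 further: compounds tested from 0.05 nM to 50 µM, 22 h at 37 °C, SEAP measured with HEK-Blue Detection, inhibition relative to agonist plus DMSO versus a known inhibitor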
Settings: TLR8 IC50, HEK-Blue cells overexpressing human TLR8, R848 15.9 μM
Units before log transform: nM; reported quantity: IC50; transform: log10.

Use the examples below as a reference point.
compound	log10 of IC50
Cc1cc(-c2[nH]c3ccc(C4CCN(CC(=O)N5CC[C@@H](O)C5)CC4)cc3c2C(C)C)cc(C)n1 [Example 275]	0.83
Cc1cc(-c2[nH]c3ccc(C4CCN(C(=O)C5CCNC5)CC4)cc3c2C(C)C)cc(C)n1 (stereo not drawn) [Example 186]	1.35
Cc1cc(-c2[nH]c3ccc(C4CCN(CC(=O)N5CCOCC5)CC4)cc3c2C(C)C)cc(C)n1 [Example 232]	0.89
Cc1cc(-c2[nH]c3ccc(C4CCN(C(=O)C5CC(=O)N(C)C5)CC4)cc3c2C(C)C)cc(C)n1 (stereo not drawn) [Example 102]	1.86
COCCN(C)C(=O)CN1CCC(c2ccc3[nH]c(-c4cc(C)nc(C)c4)c(C(C)C)c3c2)CC1 [Example 254]	1.25
Cc1cc(-c2[nH]c3ccc(C4CCNCC4(F)F)cc3c2C(C)C)cc(C)n1 (single isomer, unassigned) [Example 489A]	1.14
COCCN1CCN(CC(=O)N2CCC(c3ccc4[nH]c(-c5cc(C)nc(C)c5)c(C(C)C)c4c3)CC2)CC1 [Example 372]	1.15
CCc1c(-c2ccnc(C)c2)[nH]c2ccc(C3CCN(C[C@@H]4CCCN4)CC3)cc12 [Example 740]	0.78
Cc1cc(-c2[nH]c3ccc(C4CCN(CC(=O)N5CC[C@H](O)C5)CC4)cc3c2C(C)C)cc(C)n1 [Example 273]	0.73
Cc1cc(-c2[nH]c3ccc(C4CCN(Cc5cccnc5)CC4)cc3c2C(C)C)cc(C)n1 [Example 433]	0.38

Query :: Give recorded log10 of IC50 with human TLR8 (Homo sapiens (Human)) for the following compound: Cc1nccc(-c2[nH]c3ccc(C4CCN(Cc5cnc[nH]5)CC4)cc3c2C(C)C)c1N [Example 745]
Result :: 2.11

Query :: Give recorded log10 of IC50 with human TLR8 (Homo sapiens (Human)) for the following compound: CNCCN1CCC(c2ccc3[nH]c(-c4cc(C)nc(C)c4)c(C(C)C)c3c2)CC1 [Example 428]
Result :: 0.28

Query :: Give recorded log10 of IC50 with human TLR8 (Homo sapiens (Human)) for the following compound: Cc1cc(-c2[nH]c3ccc(C4CCN(CC(=O)N5CCC[C@H](O)C5)CC4)cc3c2C(C)C)cc(C)n1 [Example 210]
Result :: 0.79

Query :: Give recorded log10 of IC50 with human TLR8 (Homo sapiens (Human)) for the following compound: CCc1c(-c2ccnc(C)c2)[nH]c2ccc(C3CCN(C(=O)[C@@H]4CCCN4)CC3)cc12 [Example 629]
Result :: 1.27

Query :: Give recorded log10 of IC50 with human TLR8 (Homo sapiens (Human)) for the following compound: CNCC(=O)N1CCC(c2ccc3[nH]c(-c4cc(C)ncc4C)c(C(C)C)c3c2)CC1 [Example 620]
Result :: 0.54
